Tested on: MRSA ATCC BAA-44
Assay: Minimum re-sensitizing concentration
Format: cell-based, Staphylococcus aureus
Conditions: MRSA BAA-44, cefazolin
measure.name: RMA activity (in words)

Clc1ccc2[nH]c3c(c2c1)CCN(c1nc2ccccc2s1)C3	no RMA activity
Clc1ccc2sc(N3CCc4c([nH]c5ccc(Cl)cc45)C3)nc2c1	no RMA activity
Cc1ccc2nc(N3CCc4c([nH]c5ccc(Cl)cc45)C3)sc2c1	no RMA activity
FC(F)(F)c1cnc2nc(N3CCc4c([nH]c5ccc(Cl)cc45)C3)sc2c1	abolished
CCn1c2c(c3cc(Cl)ccc31)CCN(c1nc3ccc(Cl)cc3s1)C2	abolished

* * *

System: MRSA ATCC BAA-44
Assay: Minimum re-sensitizing concentration
Type: cell-based, Staphylococcus aureus
Settings: MRSA BAA-44, cefazolin
measure.name: RMA activity (in words)

Clc1ccc2[nH]c3c(c2c1)CCN(c1nc2ncccc2s1)C3	abolished
COC(=O)C1Cc2c([nH]c3ccc(Cl)cc23)CN1c1nc2ccc(Cl)cc2s1 (centres unmarked)	abolished

* * *

Tested on: MRSA ATCC BAA-44
Assay: Minimum re-sensitizing concentration
Assay type: cell-based, Staphylococcus aureus
Details: MRSA BAA-44, cefazolin
measure.name: RMA activity (in words)

FC(F)(F)c1cccc2sc(N3CCc4c([nH]c5ccc(Cl)cc45)C3)nc12	good RMA activities
Nc1cc(Cl)c2nc(N3CCc4c([nH]c5ccc(Cl)cc45)C3)sc2c1	good RMA activities
